meta.source: ChEMBL document CHEMBL1201862

system: SK-MEL-2; experiment: NCI tumour cell line growth inhibition, 48 h
The source made the active and inactive calls. No stated cut-off is given here; in the data, active = GI50 up to about 1.1 µM and inactive = higher.
recordedEndpoint: GI50

For orientation, consider the following solved cases.
CC(C)c1c(O[Si](C(C)C)(C(C)C)C(C)C)c2c3c(ccc4c3c1OC4(C)C)C(C)CC2 (stereo not drawn) : > 100 µM (inactive)
CC(C)(C)c1cc2c(OC/C=C/c3ccccc3)c(c1)Cc1cc(C(C#N)(OC/C=C/c3ccccc3)OC/C=C/c3ccccc3)cc(c1OC/C=C\c1ccccc1)Cc1cc(C(C)(C)C)cc(c1OC/C=C/c1ccccc1)Cc1cc(C(C#N)(OC/C=C\c3ccccc3)OC/C=C/c3ccccc3)cc(c1OC/C=C\c1ccccc1)C2 (stereo not drawn) : > 100 µM (inactive)
COc1cc(Nc2nc3ccccc3nc2C(C)C)cc(OC)c1OC : > 100 µM (inactive)
COc1cc(/C=C/c2ccc(OC)c(OC)c2OC)cc(OC)c1OC : 16.9 µM (inactive)
COC(=O)C1=C(CCCCO[Si](C)(C)C(C)(C)C)NC(=O)N2[C@H](CCOCc3ccccc3)CC[C@@H]12 : 75.3 µM (inactive)
Cc1cn(CC2=NCC(C)(C)CN2)c(=O)[nH]c1=O : > 100 µM (inactive)
CC12CC(c3ccccc3O1)C(C(=O)Nc1ccc(Cl)cc1Cl)C(=O)N2 (stereo not drawn) : > 100 µM (inactive)

Could you now consider this next molecule?
Req: Reported GI50 for CCOC(OC1=C(C#N)CCCC1)C(C)[Se]c1ccccc1 (stereo not drawn) : what is it?
Resp: > 100 µM (inactive)

* * *

tested on: NCI-H23; assay: NCI tumour cell line growth inhibition, 48 h
The source made the active and inactive calls. Cut-off read from the data, not from the text of the source: active = GI50 up to about 1.1 µM and inactive = higher.
recordedEndpoint: GI50

CN(C)C=O.O=C(Nc1nnn[nH]1)c1nc(O)cc(-c2ccccc2)n1 : > 100 µM (inactive)
O=C1c2ccccc2-c2cccc3ccc(Cc4ccccc4)c1c23 : > 100 µM (inactive)
c1ccc(CCc2cccnc2)nc1 : > 100 µM (inactive)
CC/C(=C\c1ccc(Cl)c(Cl)c1)[N+](=O)[O-] : 2.34 µM (inactive)
COC(=O)c1ccc(Nc2nc3[nH]cnc3c(=O)[nH]2)cc1 : > 100 µM (inactive)

Could you now consider this next compound?
Req: Reported GI50 for "C#CCCCCC#Cc1ccccc1C(=O)C=[N+]=[N-]" : what is it?
Resp: > 100 µM (inactive)

* * *

test system: MDA-N; assay: NCI tumour cell line growth inhibition, 48 h
Calls of active or inactive are those of the source. Cut-off read from the data, not from the text of the source: active = GI50 up to about 1.1 µM and inactive = higher.
Lab note: assign the record to one of active, inactive

For orientation, consider the following solved cases.
Cc1cc(C)nc(NS(=O)(=O)c2ccc(NNC(=O)c3cccc4c(NNc5ccc(S(=O)(=O)Nc6nc(C)cc(C)n6)cc5)c5ccccc5nc34)cc2)n1 : inactive
Cn1c(=O)c(-c2ccccc2)c(N=[N+]=[N-])c2ccccc21 : inactive
C=CCOC(=O)Cn1ccc(=O)[nH]c1=O : inactive
COc1ccc2oc3c(C)cc4c(OC)nnc(OC)c4c3c2c1 : inactive
O=c1c(C(c2ccco2)c2c(O)oc3ccccc3c2=O)c(O)oc2ccccc12 : inactive
CC(=O)c1cc(S(=O)(=O)c2ccc(O)c(C(C)=O)c2)ccc1O : inactive
c1ccc(CCc2cccnc2)nc1 : inactive
CC(O)CCNC(=O)Nc1c(C(F)(F)F)cc(-c2ccccc2)[nH]c1=O (stereo not given) : inactive
Cc1cc(C)c(-c2no/c(=N\S(=O)(=O)c3ccc(Cl)cc3)o2)c(C)c1 : inactive
C[C@@H]1CC[C@@]2(C)[C@H](C)/C(=C\COC(=O)/C=C/c3ccc(O)c(O)c3)CC[C@@]12C [NAVICULYL CAFFEATE] : inactive

Req: Assay result, entry COc1ccccc1[C@@H]1CCC2CC[C@@H](c3ccccc3OC)[N+]21Cc1ccccc1 (stereo not given in full) — outcome?
Resp: active

Req: Assay result, entry "C[n+]1c2ccccc2c2/c(=C\C#N)c3ccccc3n21" — outcome?
Resp: inactive

Req: Assay result, entry "Cc1nn2c(=O)c([N+](=O)[O-])c(/C=C/c3ccccc3)nc2s1" — outcome?
Resp: inactive

Req: Assay result, entry "CC(=O)O[C@H]1C(=O)[C@@]2(C)[C@H]([C@H](OC(=O)c3ccc(F)cc3)[C@]3(O)C[C@H](OC(=O)[C@H](O)[C@@H](NC(=O)c4ccccc4)c4ccccc4)C(C)=C1C3(C)C)[C@]1(OC(C)=O)CO[C@@H]1C[C@@H]2O" — outcome?
Resp: active

Req: Assay result, entry "COc1ccc(-c2cc(-c3cc(F)c(Cl)cc3Cl)[nH]n2)cc1OC" — outcome?
Resp: inactive

Req: Assay result, entry O=C1CC(NC(=O)C(F)(F)F)c2c(Br)sc(N3CCC(c4ccccc4)CC3)c21 (stereo not given) — outcome?
Resp: inactive

Req: Assay result, entry N#C[BH2-][n+]1cn(C2CC(OP(=O)(O)OCC3OC(n4cnc5c(=O)[nH]c(N)nc54)CC3O)C(CO)O2)c2nc(N)[nH]c(=O)c21 (stereo not given) — outcome?
Resp: inactive

Req: Assay result, entry "C=CCCC1(CCP(=O)(c2ccccc2)c2ccccc2)OCCO1" — outcome?
Resp: inactive

Req: Assay result, entry "CC(=O)N1c2ccccc2[C@H]2CCc3c([nH]c4ccccc34)[C@H]21" — outcome?
Resp: inactive

Req: Assay result, entry "CC(C)n1c2c([n+](C)c1/C=C/c1ccccc1)C(=O)c1ccccc1C2=O" — outcome?
Resp: active

Req: Assay result, entry "C[C@H](C(=O)N1C(=O)O[C@@H](c2ccccc2)[C@H]1C)[C@H](c1ccccc1)N(Cc1ccccc1)OC(=O)c1ccccc1" — outcome?
Resp: inactive

Req: Assay result, entry "O=C(O)CCCC#CCCCC(=O)O" — outcome?
Resp: inactive

Req: Assay result, entry "COc1ccc(/C=C2\CCc3cc(OC)c(OC)cc3C2=O)cc1" — outcome?
Resp: inactive

* * *

system: M19-MEL; assay: NCI tumour cell line growth inhibition, 48 h
Activity calls are given as the source filed them. Rule as the data show it: active = GI50 up to about 1.1 µM and inactive = higher.
This listing pairs compounds with measured GI50.

O=C1C(c2ccc([N+](=O)[O-])cc2)=[N+]([O-])c2ccccc21 : 17.2 µM (inactive)
CCC(/C=C/c1ccccc1)=N\N=C(\C=C\c1ccccc1)CC : > 100 µM (inactive)
COC(=O)[C@H]1[C@H]2C[C@@H]3c4[nH]c5cc(OC)ccc5c4CCN3C[C@H]2C[C@@H](OC(=O)c2cc(OC)c(OC)c(OC)c2)[C@@H]1OC : 20.9 µM (inactive)
O=C1/C(=N\O)S(=O)(=O)c2ccccc21 : > 100 µM (inactive)

Could you now consider this next compound?
Req: Reported GI50 for "S=c1cc(S)c2c(=S)sc3nc4ccccn4c(=S)c3c2s1" : what is it?
Resp: 35.5 µM (inactive)

* * *

test system: HOP-92; assay: NCI tumour cell line growth inhibition, 48 h
Active and inactive are the calls of the source. No stated cut-off is given here; in the data, active = GI50 up to about 1.1 µM and inactive = higher.
Lab note: assign the record to one of active, inactive

Req: Assay result, entry "O=c1c(-c2ccc(Cl)cc2)nnc2n(Cc3ccccc3)c3ccccc3n12" — outcome?
Resp: inactive

* * *

system: Malme-3M; test: NCI tumour cell line growth inhibition, 48 h
Calls of active or inactive are those of the source. Rule as the data show it: active = GI50 up to about 1.1 µM and inactive = higher.
recordedEndpoint: GI50

O=CC(O)C(O)C(O)C(O)COC(=O)NCCCCC(=O)C(F)(F)C(F)(F)C(F)(F)C(F)(F)C(F)(F)C(F)(F)C(F)(F)F (stereo not drawn) : > 100 µM (inactive)
O=[N+]([O-])c1ccc(Oc2c(Cl)cc(S(=O)(=O)N/C(=N\O)Nc3ccc(Cl)cc3)cc2Cl)c(Cl)c1 : 14.6 µM (inactive)
Fc1ccc(/C(=N/Cc2ccccc2)N2CCOCC2)cc1 : > 100 µM (inactive)

Could you now consider this next molecule?
Req: Enter reported GI50 observed with Malme-3M for [O-][S+](CCc1ccccc1)Nc1ccccc1 (stereo not drawn)
Resp: > 100 µM (inactive)

* * *

tested on: NCI/ADR-RES; assay: NCI tumour cell line growth inhibition, 48 h
Activity calls are given as the source filed them. Cut-off read from the data, not from the text of the source: active = GI50 up to about 1.1 µM and inactive = higher.
Lab note: assign the record to one of active, inactive

For orientation, consider the following solved cases.
COc1ccc(-c2nc3ccc([N+](=O)[O-])cc3c(=O)[nH]2)cc1 : inactive
O=c1[nH]c2ccc(C(F)(F)F)cc2nc1Cc1ccccc1 : inactive
c1ccc(C2=NN=C3C(c4ccccc4)=Nc4ccccc4N3C2)cc1 : inactive

Req: Assay result, entry COc1cccc(N(CN2C(=O)CCC2OC)C(C)=O)c1 (stereo unspecified) — outcome?
Resp: inactive

Req: Assay result, entry "N=C(N)NCC[C@H](NC(=O)OCCCCCn1ccc(=O)[nH]c1=O)C(=O)O" — outcome?
Resp: inactive

Req: Assay result, entry "CCOC(=O)c1c2ccccc2n2c(N)c(C(N)=O)nnc12" — outcome?
Resp: inactive

Req: Assay result, entry COc1cc(S(=O)(=O)Nc2ccc(-c3csc(N4C(=O)C(Cl)C4c4cccc(Oc5ccccc5)c4)n3)cc2)ccc1Cl (stereo unspecified) — outcome?
Resp: inactive

Req: Assay result, entry "Nc1nc(Cl)nc(NCc2ccccc2)n1" — outcome?
Resp: inactive

Req: Assay result, entry CC1C2Cc3ccc(O)cc3C1(C)CCN2C (stereo unspecified) — outcome?
Resp: inactive

Req: Assay result, entry "COc1cc2c(c(OC)c1OC)C(=O)NCCC2" — outcome?
Resp: inactive

Req: Assay result, entry "COc1cccc(NCC(=O)Nn2c(-c3ccccc3)nc3ccccc3c2=O)c1" — outcome?
Resp: inactive

Req: Assay result, entry "COc1ccc(-c2nnc(CCCCCCCCc3nnc(-c4ccc(OC)cc4)o3)o2)cc1" — outcome?
Resp: inactive
